Property: koff; scope: individual binders
molecular target: T1, recombinant human IL-13 (human, UniProt P35225 35-146, limits assumed); assay: SPR Biacore 3000, antibody captured, cytokine in solution
T1 construct: Bought reagent; also called wild type IL-13
T1 sequence (P35225 35-146 limits assumed): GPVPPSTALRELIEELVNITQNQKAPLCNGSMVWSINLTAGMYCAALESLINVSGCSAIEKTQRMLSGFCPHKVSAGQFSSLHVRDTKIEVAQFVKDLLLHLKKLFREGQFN
Output should be the measured figure followed by the unit it is expressed in.

Check out these entries, answers already filled in.
* huB-B13 VL3 × VH3 (antibody, V domains shown, Expressed as a whole antibody, purified on Protein A; also called humanized B-B13 VL3xVH3) VH: EVQLKESGPGLVAPGGSLSITCTVSGFSLTDSSINWVRQPPGKGLEWLGMIWGDGRIDYADALKSRLSISKDSSKSQVFLEMTSLRTDDTATYYCARDGRFPYAMKFWGQGTSVTVSS VL: DIVLTQSPASLAVSLGQRATISCRASESVDSYGQSYMHWYQQKAGQPPKLLIYLASNLESGVPARFSGSGSRTDFTLTIDPVQAEDAATYYCQQNAEDSRTFGGGTKLEIK | 0.000405 s⁻¹
* huB-B13 VL3 × VH1 (antibody, V domains shown, Expressed as a whole antibody, purified on Protein A; also called humanized B-B13 VL3xVH1) VH: EVQLKESGPGLVAPGGSLSITCTVSGFSLTDSSINWVRQPPGKGLEWLGMIWGDGRIDYNDALKSRLSISKDNSKSQVFLEMNSLRTDDTATYYCARDGYFPYAMDFWGQGTSVTVSS VL: DIVLTQSPASLAVSLGQRATISCRASESVDSYGQSYMHWYQQKAGQPPKLLIYLASNLESGVPARFSGSGSRTDFTLTIDPVQAEDAATYYCQQNAEDSRTFGGGTKLEIK | 0.000333 s⁻¹

Here is another binder to look at.
Reported koff of huB-B13 VL1 × VH3 (antibody, V domains shown, Expressed as a whole antibody, purified on Protein A; also called humanized B-B13 VL1xVH3) VH: EVQLKESGPGLVAPGGSLSITCTVSGFSLTDSSINWVRQPPGKGLEWLGMIWGDGRIDYADALKSRLSISKDSSKSQVFLEMTSLRTDDTATYYCARDGRFPYAMKFWGQGTSVTVSS VL: DIVLTQSPASLAVSLGQRATISCRASESVDSYGNSYMHWYQQKAGQPPKLLIYLASNLESGVPARFSGSGSRTDFTLTIDPVQAEDAATYYCQQNNEDPRTFGGGTKLEIK : 0.000395 s⁻¹
